# STUDY_TARGET: hemoglobin (Homo sapiens, UniProt P68871+P69905)
# Sequence (P69905 2-142): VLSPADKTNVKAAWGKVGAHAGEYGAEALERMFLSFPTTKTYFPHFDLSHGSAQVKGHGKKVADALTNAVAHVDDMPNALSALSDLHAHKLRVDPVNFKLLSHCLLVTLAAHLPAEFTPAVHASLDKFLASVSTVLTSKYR
# Sequence (P68871 2-147): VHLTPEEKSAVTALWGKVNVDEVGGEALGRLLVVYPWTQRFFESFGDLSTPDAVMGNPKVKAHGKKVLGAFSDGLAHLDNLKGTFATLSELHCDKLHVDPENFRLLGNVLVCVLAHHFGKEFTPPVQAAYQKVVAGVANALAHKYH
# METHOD_NOTES: Stability of hemoglobin in samples preserved at 37° C. in preservation solution containing no haptoglobin, Hb measured by latex agglutination method (Examples 8, 9 and Table 10)
# CONDITION_CONTEXT: Feces 1; 16 h at 37° C.; no phenylboronic acid, sugar 100 mmol/L
The following compounds are shown together with reported Hb concentration values.

| COMPOUND | Hb concentration (µg/L) |
| --- | --- |
| O=C(CO)[C@@H](O)[C@H](O)[C@H](O)CO [Fructose, fructose] | 134 |
| OC[C@@H](O)[C@@H](O)[C@H](O)[C@H](O)CO [Mannitol, mannitol] | 131 |
| OC[C@H]1O[C@H](O[C@H]2O[C@H](CO)[C@@H](O)[C@H](O)[C@H]2O)[C@H](O)[C@@H](O)[C@@H]1O [Trehalose, trehalose] | 133 |
| OC[C@H]1O[C@@](CO)(O[C@H]2O[C@H](CO)[C@@H](O)[C@H](O)[C@H]2O)[C@@H](O)[C@@H]1O [Sucrose, sucrose] | 137 |
| OC[C@@H](O)[C@@H](O)[C@H](O)[C@@H](O)CO [Sorbitol, sorbitol] | 146 |
